- assay target: hnRNPA2 LCD (human, UniProt P22626 200-353)
- Sequence (P22626 200-353): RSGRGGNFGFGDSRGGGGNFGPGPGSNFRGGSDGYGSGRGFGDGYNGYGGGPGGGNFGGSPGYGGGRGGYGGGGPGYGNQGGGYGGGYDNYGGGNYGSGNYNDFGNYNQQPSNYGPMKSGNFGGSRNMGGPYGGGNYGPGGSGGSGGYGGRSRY
- protocol details: MST; 10 mM MgCl2; MST: 20 mM HEPES pH 7.5, 10 mM MgCl2, 0.05% Tween-20; 420 nM labelled U30 with protein titrated, or labelled peptide with RNA titrated; temperature not stated
- condition: protein: recombinant; tags: 6xHis removed by TEV
reported metric: pKd
Please express pKd as -log10 of the molar concentration.

Entry under review: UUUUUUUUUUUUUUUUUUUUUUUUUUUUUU (ssRNA) [U30 (labelled)] . Reported pKd?
6.14
